Where do these numbers come from? They come from patent US20240400614A1.

Target: MMP-2 (Homo sapiens)
Construct: purchased SIGMA PF023
Sequence (P08253 110-660): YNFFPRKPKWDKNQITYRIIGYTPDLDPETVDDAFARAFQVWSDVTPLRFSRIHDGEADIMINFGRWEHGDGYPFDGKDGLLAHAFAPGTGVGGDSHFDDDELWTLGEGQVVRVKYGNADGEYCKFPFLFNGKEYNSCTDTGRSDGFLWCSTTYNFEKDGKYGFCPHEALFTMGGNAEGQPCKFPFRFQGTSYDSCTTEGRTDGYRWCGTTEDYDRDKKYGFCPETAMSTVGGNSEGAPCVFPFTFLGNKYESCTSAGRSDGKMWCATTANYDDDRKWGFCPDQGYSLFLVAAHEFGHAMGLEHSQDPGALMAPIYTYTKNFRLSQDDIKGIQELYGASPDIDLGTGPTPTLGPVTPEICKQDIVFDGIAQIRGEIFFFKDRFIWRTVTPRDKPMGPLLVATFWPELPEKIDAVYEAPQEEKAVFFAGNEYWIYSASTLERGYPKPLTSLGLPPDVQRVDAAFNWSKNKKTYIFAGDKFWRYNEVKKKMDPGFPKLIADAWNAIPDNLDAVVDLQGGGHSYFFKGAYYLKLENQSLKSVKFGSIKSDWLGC
Experiment: FRET peptide cleavage efficiency with MMP-2
Type: biochemical
Settings: t = 15 min; 200 uM linker, 1 ug/ml protease, 37° C., buffer C pH 7.5
Square brackets hold non-standard residues; d marks the D form. Ends that are not written are not given here. Tyr(3-NO2) = N[C@@H](Cc1ccc(O)c([N+](=O)[O-])c1)C(=O)O; 2Abz = Nc1ccccc1C(=O)O
Endpoint name: % cleavage MMP-2 t = 15 min (%)
# value in %; strip the unit string

Substance: RGRRPLGYFGKL ([2Abz]RGRRPLGYFGKL[Tyr(3-NO2)]-NH2) [LNK057]
Measurement unit: %
Endpoint value: 71

GET /value?item= SGRVLRKAGPAGLVG ([2Abz]SGRVLRKAGPAGLVG[Tyr(3-NO2)]-NH2) [LNK013] &field=% cleavage MMP-2 t = 15 min returns 99

GET /value?item= SGRVANLVG (not fully specified (N-terminus, C-terminus)) [LNK017] &field=% cleavage MMP-2 t = 15 min returns 90

GET /value?item= SQLYSSPG ([2Abz]SQLYSSPG[Tyr(3-NO2)]-NH2) [LNK068] &field=% cleavage MMP-2 t = 15 min returns 2

GET /value?item= SSLYSSPG ([2Abz]SSLYSSPG[Tyr(3-NO2)]-NH2) [LNK065] &field=% cleavage MMP-2 t = 15 min returns 3

GET /value?item= SGRVLTLRKAGPAGLVG ([2Abz]SGRVLTLRKAGPAGLVG[Tyr(3-NO2)]-NH2) [LNK011] &field=% cleavage MMP-2 t = 15 min returns 98

GET /value?item= RRLNYSL ([2Abz]RRLNYSL[Tyr(3-NO2)]-NH2) [LNK074] &field=% cleavage MMP-2 t = 15 min returns 1

GET /value?item= SQYQSSPG ([2Abz]SQYQSSPG[Tyr(3-NO2)]-NH2) [LNK067] &field=% cleavage MMP-2 t = 15 min returns 1

GET /value?item= SGRVLPANLVG ([2Abz]SGRVLPANLVG[Tyr(3-NO2)]-NH2) [LNK015] &field=% cleavage MMP-2 t = 15 min returns 94

GET /value?item= KSKQHSL ([2Abz]KSKQHSL[Tyr(3-NO2)]-NH2) [LNK077] &field=% cleavage MMP-2 t = 15 min returns 3

GET /value?item= SSRGPYMLQG ([2Abz]SSRGPYMLQG[Tyr(3-NO2)]-NH2) [LNK022] &field=% cleavage MMP-2 t = 15 min returns 31

GET /value?item= SSLQSSPG ([2Abz]SSLQSSPG[Tyr(3-NO2)]-NH2) [LNK066] &field=% cleavage MMP-2 t = 15 min returns 1

GET /value?item= SPLGLAGS ([2Abz]SPLGLAGS[Tyr(3-NO2)]-NH2) [LNK030] &field=% cleavage MMP-2 t = 15 min returns 67

GET /value?item= KLYSSKQ ([2Abz]KLYSSKQ[Tyr(3-NO2)]-NH2) [LNK071] &field=% cleavage MMP-2 t = 15 min returns 1

GET /value?item= ISQYSSAT ([2Abz]ISQYSSAT[Tyr(3-NO2)]-NH2) [LNK070] &field=% cleavage MMP-2 t = 15 min returns 0
